Measured inhibition, listed per entry.
- Test target: L-lactate dehydrogenase (Plasmodium falciparum (isolate CDC / Honduras))
- Protocol details: PfLDH activity inhibition – cell lysate, 3D7 strain, counter-screen for P. falciparum growth inhibition project (AID 2304);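 note: 0% = vehicle and 100% = reference inhibitor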
- Test parameters: P. falciparum 3D7 crude extract, LDH APAD/NBT absorbance; at 2 µM; hits give high values
Value kind: inhibition (%)

1. CCOC(C(=O)OCCN(C(C)C)C(C)C)(c1ccccc1)c1ccccc1    -2
2. CC(=O)Nc1ccc(CN2CCC(N(C)c3cc(NC(=O)c4ccc(F)cc4)ccn3)CC2)cc1    -1
3. CNCCCN(C)C(=O)Oc1c(Br)c(C)nc(C)c1-c1ccc(Oc2ccc(OC(F)(F)F)cc2)cc1    3

* * *

Measured growth inhibition, listed per entry.
- Protocol details: antimalarial activity against Dd2 strain (AID 2302);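 note: 0% = DMSO untreated growth and 100% = chloroquine plus artemisinin killed control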
- Test parameters: P. falciparum Dd2 in RBCs, LDH growth readout, 72 h; at 2 µM; hits give high values
Value kind: growth inhibition (%)

1) CC[C@H]1CN2CC[C@@H]1C[C@H]2[C@H](O)c1cc(N2CCC(c3ccccc3)CC2)nc2ccc(OC)cc12    98
2) CC(=O)Nc1ccc(OCCN(CC(F)(F)F)c2ccc(C#N)cc2C(F)(F)F)cc1    83
3) O=C(/C=C/c1ccc2ccccc2c1)NC1CCC(CN2CCC(c3c[nH]c4ccccc34)CC2)CC1 (stereo not drawn)    88
4) Cc1cc(N)nc2cc(CNCCc3ccccc3Br)ccc12    93
5) CN(C)c1cccc(CCNCCc2c[nH]c3ccc(Cl)cc23)c1    75
6) COc1ccc(C(=O)[C@H]2C[C@@H]2CN2CC=C(c3c[nH]c4cccc(Br)c34)CC2)cc1    67
7) Cc1cc(N(C)C2CCN(C)CC2)nc(Nc2ccc(Br)cc2)n1    92
8) Cc1c(C(=O)N[C@@H](C)c2ccccc2)c2cc(O)c(Br)cc2n1C1CCCCC1    95
9) CC[C@H]1CN2CC[C@H]1C[C@H]2[C@H](O)c1cc(-c2ccccc2F)nc2ccc(OC)cc12    98
10) CC1=CC(=O)[C@@H](O)[C@]2(C)[C@H]3[C@@]4(O)OC[C@@]35[C@@H](C[C@@H]12)OC(=O)C[C@H]5[C@@H](C)[C@H]4O    98
11) CC[C@H]1CN2CC[C@@H]1C[C@H]2[C@H](O)c1cc(N2CCC(O)(c3ccccc3)CC2)nc2ccc(OC)cc12    98
12) CC(C)c1ccc(C=CC(=O)NC2CCC(CN3CCC(c4c[nH]c5ccccc45)CC3)CC2)cc1 (stereo not drawn)    85
13) C=C[C@H]1CN2CC[C@H]1C[C@@H]2[C@@H](O)c1ccnc2ccccc12    2

* * *

- Test target: Mitogen-activated protein kinase 7 (Homo sapiens)
- Protocol details: ERK5 transactivation activators in reporter cells, primary screen, cell-based, HTS (AID 1508626);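 note: luciferase driven by Gal4-ERK5 fusion binding five Gal4 sites before minimal TATA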
- Test parameters: HeLa Gal4-ERK5 transactivation, 18 h, at 5 µM, hits give high values
Calls of active or inactive are those of the source.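 How the source made its calls: active means luciferase signal above three times the same-plate solvent-only control wells; inactive means the rest.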
Measured luciferase signal, listed per entry.
Value kind: luciferase signal

1. O=C(O)c1ccccc1-c1c2cc(Br)c(=O)cc-2oc2[c]([Hg])c(O)c(Br)cc12    52 AU (inactive)
2. CC12CCCCC1(Br)[N+](=O)N2[O-] (centres undefined)    64 AU (inactive)
3. Clc1ccc(C(c2ccc(Cl)cc2)C(Cl)(Cl)Cl)cc1    48 AU (inactive)
4. OC1CCCCC1N1CCC(c2ccccc2)CC1 (centres undefined)    60 AU (inactive)
5. NC(=O)CN1CCCC1=O    44 AU (inactive)
6. COc1cc([C@@H]2c3cc4c(cc3[C@@H](O)[C@H]3COC(=O)[C@H]23)OCO4)cc(OC)c1O    72 AU (inactive)
7. Oc1cc(Cl)ccc1Oc1ccc(Cl)cc1Cl    48 AU (inactive)
8. COc1cc2c(cc1OC)[C@@]13CCN4CC5=CCO[C@H]6CC(=O)N2[C@H]1[C@H]6[C@H]5C[C@H]43    76 AU (inactive)
9. CC(CCc1ccccc1)NC(C)C(O)c1ccc(O)cc1 (centres undefined)    40 AU (inactive)

* * *

- Protocol details: CellTiter-Glo luminescent readout of SW480 viability loss, NPC library primary (AID 1117343)
- Test parameters: CellTiter-Glo luminescence; at 20 µM (top of the series)
Please assign no (0) whenever viability decrease (inhibition) is at or above 20%, and yes (1) whenever it is below.

1) Oc1ccc(Cl)cc1Cc1ccccc1    no (0)
2) COCC(=O)N(c1c(C)cccc1C)C(C)C(=O)OC (stereo not drawn)    yes (1)
3) NCC(CC(=O)O)c1ccc(Cl)cc1 (stereo not drawn)    yes (1)
4) CC1=C2[C@H]3OC(=O)[C@@H](C)[C@@H]3CC[C@@]2(C)C=CC1=O    yes (1)
5) CN1C2CCC(C)(C)C1CC(OC(=O)C(O)(c1cccs1)c1cccs1)C2 (stereo not drawn)    no (0)
6) NCC(O)c1ccc(O)cc1 (stereo not drawn)    yes (1)
7) NCC(O)c1cccc(O)c1 (stereo not drawn)    yes (1)
8) CCC1(C2=NCCN2)Cc2ccccc2O1 (stereo not drawn)    yes (1)

* * *

Measured remaining activity, listed per entry.
- Test system: Aerobactin synthetase IucA (Klebsiella pneumoniae, hypervirulent)
- Protocol details: IucA enzyme inhibition, biochemical, LOPAC library, absorbance readout (AID 1346212);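 note: 100% = no compound wells and 0% = no enzyme wells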
- Test parameters: IucA enzyme assay, absorbance (OD) readout; hits give low values; concentration not given here
Value kind: remaining activity (%)

1) C/C(O)=C(\C#N)C(=O)Nc1cc(Br)ccc1Br    112
2) COc1cc2nc(N3CCN(C(=O)C4CCCO4)CC3)nc(N)c2cc1OC (configuration not stated)    102
3) CNCCCC1c2ccccc2C=Cc2ccccc21    101
4) CC(C)c1cccc(C(C)C)c1O    108
5) O=C(Nc1cccc(C(=O)Nc2ccc(S(=O)(=O)O)c3cc(S(=O)(=O)O)cc(S(=O)(=O)O)c23)c1)Nc1cccc(C(=O)Nc2ccc(S(=O)(=O)O)c3cc(S(=O)(=O)O)cc(S(=O)(=O)O)c23)c1    88.6
6) CN1CCc2cccc3c2[C@H]1Cc1ccc(O)c(O)c1-3    107
7) CC[C@@H]1Cc2cc(O)ccc2C2=C1c1ccc(O)cc1C[C@H]2CC    89.7

* * *

- System: Aerobactin synthetase IucA (Klebsiella pneumoniae hvKP1)
- Protocol details: Biochemical IucA enzyme inhibition primary screen of the Spectrum library (AID 1346200);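 note: 100% = wells without compound and 0% = wells lacking enzyme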
- Test parameters: malachite green pyrophosphate, A620, at 8 µM, hits give low values
Non-standard residues stand in square brackets, D forms with d. Residues, ends and D or L forms follow the SMILES beside them. Orn = NCCC[CH](N)C(=O)O
Measured activity remaining, listed per entry.
Value kind: activity remaining (%)

1. CCCCC1C(=O)N(c2ccccc2)N(c2ccc(O)cc2)C1=O (stereo not given)    114
2. CC1=CC(=O)c2ccccc2C1=O    117
3. CC1(C)OCC(C2OC(=O)C(O)=C2O)O1 (stereo not given)    87.7
4. CN[C@@H]1C(O)[C@@H](O[C@@H]2[C@@H](O)[C@H](O[C@H]3OC(CN)=CC[C@H]3N)[C@@H](N)C[C@H]2N)OC[C@]1(C)O (stereo not given in full)    96.1
5. CC(C)=CCCC1(C)C=Cc2c(O)c3c(c(CC=C(C)C)c2O1)OC12C(=CCCC1C(C)(C)O[C@@]2(C/C=C(\C)C(=O)O)C(=O)O)C3=O (stereo not given in full)    116
6. O=c1c(O)c(-c2ccc(O)c(O)c2)oc2cc(O)ccc12    101
7. CNC(C)[C@H](O)c1ccccc1 (stereo not given in full)    87.2
8. CNC(=O)Oc1ccc2c(c1)[C@]1(C)CCN(C)[C@@H]1N2C    116
9. CCC(=O)O[C@H](CC(=O)O)C[N+](C)(C)C    107
10. CN(Cc1cc(Br)cc(Br)c1N)C1CCCCC1    112
11. Nc1cc(C(Cl)=C(Cl)Cl)c(S(N)(=O)=O)cc1S(N)(=O)=O    104
12. Cc1cc2nc3c(=O)[nH]c(=O)nc-3n(CC(O)C(O)C(O)CO)c2cc1C (stereo not given)    106
13. Nc1ccc(S(=O)(=O)Nc2ccccn2)cc1    97.8
14. COc1cc(CNC(=O)CCCC/C=C/C(C)C)ccc1O    109
15. CN(C(=O)CN(CCO)CC(=O)N(C)C(C)(C)Cc1ccccc1)C(C)(C)Cc1ccccc1    101
16. CC(C)CCCC1(C)C=Cc2c(O)c3c(c(CCC(C)C)c2O1)OC12C(CC4CC1C(C)(C)OC2(CCC(C)C(=O)O)C4O)C3=O (stereo not given)    98
17. COc1c2ccoc2cc2oc(=O)ccc12    102
18. CNCc1ccccc1    108
19. CO[C@@]12[C@@H]3NC3CN1C1=C(C(=O)C(N)=C(C)C1=O)[C@@H]2COC(N)=O (stereo not given in full)    95.4
20. OC[C@H]1O[C@@](CO)(O[C@@H]2O[C@H](CO)[C@@H](O)[C@H](O)[C@H]2O)[C@@H](O[C@@H]2O[C@H](CO)[C@@H](O)[C@H](O)[C@H]2O)[C@@H]1O    82.4
21. CC(=O)Oc1ccc2c(c1)CCC1C2CC[C@@]2(C)C1CC[C@@H]2OC(C)=O (stereo not given in full)    120
22. CCOc1ccc(C(=O)c2ccc(O)c(O)c2O)cc1    110
23. CC(C)=CCOc1c2occc2cc2ccc(=O)oc12    108
24. CC(O)(P(=O)(O)O)P(=O)(O)O    119
25. COc1ccc(-c2cc(=O)c3c(O)c(OC)c(O[C@H]4O[C@H](CO[C@@H]5O[C@@H](C)[C@H](O)[C@@H](O)[C@H]5O)[C@@H](O)[C@H](O)[C@H]4O)cc3o2)cc1    109
26. CC(C)CC1NC(=O)C(CCCN)NC(=O)C(C(C)C)NC(=O)C2CCCN2C(=O)C(Cc2ccccc2)NC(=O)C(CC(C)C)NC(=O)C(CCCN)NC(=O)C(C(C)C)NC(=O)C2CCCN2C(=O)C(Cc2ccccc2)NC1=O (stereo not given) (cyclo(FPV[Orn]LFPV[Orn]L); configuration not given here)    122
27. COc1ccc([C@@H]2CC(=O)c3c(O)cc(O[C@@H]4O[C@H](CO[C@H]5O[C@@H](C)[C@H](O)[C@@H](O)[C@H]5O)[C@@H](O)[C@H](O)[C@H]4O)cc3O2)cc1O    102
28. C#CCCCCCCCCCCCc1ccco1    113
29. C=CCC1(C(C)CCC)C(=O)N=C(S)NC1=O (stereo not given)    110
30. CCC(=O)OCC(=O)[C@@]1(OC(=O)CC)[C@H](C)CC2C3C([C@@H](O)C[C@@]21C)[C@@]1(C)C=CC(=O)C=C1C[C@H]3Cl (stereo not given in full)    106
